Please go through the items and note down their TGI.
system: SK-OV-3 ovarian; assay: NCI tumour cell line growth inhibition, 48 h

// query Field request: TGI | item: CSc1nc(NC2OCC(O)C(O)C2O)c(N)c(=O)[nH]1 (stereo not drawn)
// result > 100 µM

// query Field request: TGI | item: `Cc1c[n+](=O)c2ccccc2n1[O-]`
// result > 100 µM

// query Field request: TGI | item: `C[C@H](NC(=O)[C@@H](C)N)[C@H](Oc1ccc2c(cnn2-c2ccc(F)cc2)c1)c1ccc2c(c1)OCCO2`
// result 13.5 µM

// query Field request: TGI | item: COC(=O)C1CC2CCC1(O[Si](C(C)C)(C(C)C)C(C)C)C(O)C2 (stereo not drawn)
// result > 100 µM

// query Field request: TGI | item: `O=c1[nH]c(=O)c2cn[nH]c2[nH]1`
// result > 100 µM

// query Field request: TGI | item: `COc1ccc(OC)c(-c2nc3n(c2/C=C2/C(=O)Nc4ccccc42)CCS3)c1`
// result > 100 µM

// query Field request: TGI | item: `C=CCOc1cc(NC(=S)c2ccoc2C)ccc1OC`
// result > 100 µM

// query Field request: TGI | item: `C/C(=N\NC(=S)N1CC2CCC(CC2)C1)c1nccs1`
// result 11.3 µM

// query Field request: TGI | item: COC(=O)NC(=O)c1cn(C2OC(CO)C(O)C2O)c(=O)[nH]c1=O (stereo not drawn)
// result > 100 µM

// query Field request: TGI | item: `Cc1ccc2c(c1)C(=O)N(N(C)C)CC(=O)N2`
// result > 100 µM

// query Field request: TGI | item: CC1(C)C2CCC13C(=O)C1OC3(C2)C2C(=O)c3cc4ccccc4cc3C(=O)C12 (stereo not drawn)
// result 67.4 µM

// query Field request: TGI | item: `COc1cccc(N2CCN(CC(=O)N3CCN(c4nnc(-c5ccc(Cl)cc5)c(-c5ccc(Cl)cc5)n4)CC3)CC2)c1`
// result 77.6 µM

// query Field request: TGI | item: `Oc1c(-c2nnc(-c3ccccc3Cl)o2)sc2nnc(-c3ccccc3)c(-c3ccccc3)c12`
// result > 100 µM

----------
tested on: HL-60(TB) leukemia; assay: NCI tumour cell line growth inhibition, 48 h
Please go through the items and note down their TGI.

// query Field request: TGI | item: COc1ccc(C23C(=O)c4ccccc4N2O[C@H]2C(=O)N(c4ccccc4)C(=O)[C@H]23)cc1 (stereo not given in full)
// result > 100 µM

// query Field request: TGI | item: `C[C@]12CC[C@@H]3c4ccc(O)cc4CC[C@H]3[C@@H]1CC[C@@H]2OP(=O)(O)O`
// result > 100 µM

// query Field request: TGI | item: `C/C(N=NS(=O)(=O)c1ccccc1)=C1\C=CC=CN1O`
// result > 100 µM

// query Field request: TGI | item: `Cc1cc(C)n(-c2nsc3ccccc23)n1`
// result > 100 µM

// query Field request: TGI | item: `C=C(CN1C(=O)CN(C)C1=O)c1ccc(C(=O)Nc2ccccc2N)cc1`
// result 61.1 µM

----------
test system: DU-145 prostate; test: NCI tumour cell line growth inhibition, 48 h
measured-attribute: TGI

// query Field request: TGI | item: `CCOC(=O)N1CCN(/[N+]([O-])=N/Oc2ccc([N+](=O)[O-])cc2[N+](=O)[O-])CC1`
// result 19.2 µM

// query Field request: TGI | item: `CN(C)c1ccc(/C=C/C(=O)CC(=O)/C=C/c2ccc(N(C)C)cc2)cc1`
// result > 100 µM

// query Field request: TGI | item: CC1(C)C2C=C(CCN3CCOCC3)CC1C2 (stereo not given)
// result > 100 µM

// query Field request: TGI | item: `CN1CCN(C(=S)N(C(=O)c2ccc(Cl)cc2)c2ccccc2)CC1`
// result > 100 µM

// query Field request: TGI | item: `N#Cc1ccc(OCc2nc(N)nc(N)c2-c2ccc(Cl)c(Cl)c2)cc1`
// result > 100 µM

// query Field request: TGI | item: `C/C(=C(/C)c1ccc(O)cc1)c1ccc(O)cc1`
// result > 100 µM

// query Field request: TGI | item: `COc1ccc(OC)c(-c2nc3n(c2/C=C2/C(=O)Nc4ccccc42)CCS3)c1`
// result > 100 µM

// query Field request: TGI | item: `O=c1[nH]nc(-c2ccccc2)n1Nc1ccccc1`
// result > 100 µM

// query Field request: TGI | item: `C/C(=N\NC(=S)N1CC2CCC(CC2)C1)c1nccs1`
// result 12.5 µM

// query Field request: TGI | item: `C=CCOc1cc(NC(=S)c2ccoc2C)ccc1OC`
// result > 100 µM

// query Field request: TGI | item: `O=C(c1ccccc1)n1c(Cc2ccccc2)nc2cc(C34CC5CC(CC(C5)C3)C4)ccc21`
// result > 100 µM

// query Field request: TGI | item: `CC(=O)OC/C=C/[C@H](O[Si](C)(C)C(C)(C)C)[C@@H](O)/C=C/COC(C)=O`
// result > 100 µM

// query Field request: TGI | item: `O=c1ccn2n1Cc1ccccc1C2`
// result > 100 µM

// query Field request: TGI | item: CN1CCc2c3n(c4cc(Br)ccc24)[C@H](O)CCCC31 (stereo not given in full)
// result > 10 µM

// query Field request: TGI | item: `O=C1Nc2ccccc2C1=Nc1cccc2ncccc12`
// result > 100 µM

// query Field request: TGI | item: `C=C1C(=O)O[C@H]2[C@H]1CC/C(CNC(=O)/C=C/c1cc(OC)c(OC)c(OC)c1)=C\CC[C@@]1(C)O[C@@H]21`
// result 17.3 µM

// query Field request: TGI | item: CCCCCC(C/C=N/N(C)C)C(O)(C(F)(F)F)C(F)(F)F (stereo not given)
// result > 100 µM

// query Field request: TGI | item: `O=C(Nc1ccc([As](=O)(O)O)cc1)Nc1cccc(Cl)c1Cl`
// result > 100 µM

// query Field request: TGI | item: `NS(=O)(=O)c1ccc(-n2nc(-c3ccc(Cl)cc3)cc2-c2cc(O)ccc2O)cc1`
// result 35.8 µM

// query Field request: TGI | item: `CN1CCC2(CC1)ONC1=NCCN12`
// result > 100 µM

// query Field request: TGI | item: `S=c1nc(N2CCCCC2)c2cn[nH]c2[nH]1`
// result > 100 µM

// query Field request: TGI | item: `COc1cccc(N2CCN(CC(=O)N3CCN(c4nnc(-c5ccc(Cl)cc5)c(-c5ccc(Cl)cc5)n4)CC3)CC2)c1`
// result > 100 µM

// query Field request: TGI | item: CC(=O)OCC1=C(C(=O)O)N2C(=O)C(NC(=O)CSc3ccncc3)C2SC1 (stereo not given)
// result > 100 µM

// query Field request: TGI | item: `O=C1C(Cl)=C(Nc2cccc(Cl)c2)C(=O)N1Cc1ccc(Cl)cc1`
// result 11.4 µM

// query Field request: TGI | item: `COc1ncnc2c(-c3ccccc3)cn(COCc3ccccc3)c12`
// result > 100 µM

----------
system: NCI-H23 lung; test: NCI tumour cell line growth inhibition, 48 h
Please go through the items and note down their TGI.

// query Lookup: TGI / NCI-H23 lung / O=C1CC(O)CC(=O)C1=C(O)CCCCCCCCCCc1ccccc1 (configuration not stated)
// result > 100 µM

// query Lookup: TGI / NCI-H23 lung / COC(=O)/C=C\COCC1C2CCC(=O)C21 (configuration not stated)
// result > 25 µM

// query Lookup: TGI / NCI-H23 lung / `CN(/N=C/c1cccc2cccnc12)c1ccc([N+](=O)[O-])cc1[N+](=O)[O-]`
// result 50.1 µM

// query Lookup: TGI / NCI-H23 lung / `CN1C2=C(CC3=C1CC(C)(C)CC3=O)C(=O)CC(C)(C)C2`
// result > 100 µM

// query Lookup: TGI / NCI-H23 lung / `Fc1ccc(Oc2nc3ccc(C(F)(F)F)cc3nc2-c2ccccc2)cc1`
// result > 100 µM

// query Lookup: TGI / NCI-H23 lung / CN(O)C(=O)SCC(NC(=O)CCC(N)C(=O)O)C(=O)NCC(=O)O (configuration not stated)
// result > 2000 µM

// query Lookup: TGI / NCI-H23 lung / `Cc1cc2c(cc1Cl)SC(NNC(=O)c1ccco1)=NS2(=O)=O`
// result > 10 µM

// query Lookup: TGI / NCI-H23 lung / `Cc1ccc(NCC(=O)N2CC(=O)Nc3ccccc32)c(C)c1`
// result > 100 µM

// query Lookup: TGI / NCI-H23 lung / `COc1cc(Br)c(C=Nc2cccc3cc(OC)c(OC)cc23)cc1OC`
// result > 100 µM

// query Lookup: TGI / NCI-H23 lung / `CCCc1cc(=O)oc2c3c(c4c(c12)OC(C)(C)CC4)O[C@@H](C)[C@H](C)[C@H]3O`
// result 25 µM

// query Lookup: TGI / NCI-H23 lung / `CN(CCNC(=O)c1nn(-c2ccccc2)c2c1Cc1ccccc1-2)CCNC(=O)c1nn(-c2ccccc2)c2c1Cc1ccccc1-2`
// result 3.7 µM

// query Lookup: TGI / NCI-H23 lung / `CCCCON(OC(=O)c1ccc2ccccc2c1)C(=O)c1ccccc1`
// result > 100 µM

// query Lookup: TGI / NCI-H23 lung / `O=C(O)c1n[nH][nH]c1=S`
// result > 100 µM

// query Lookup: TGI / NCI-H23 lung / CC(C)=CC1C[C@H](C2CC=C3C2(C)CCC2[C@@]3(C)C(=O)CC3[C@]2(C)C=CC(=O)[C@]3(C)CO)CO1 (some centres not stated)
// result 19.1 µM

// query Lookup: TGI / NCI-H23 lung / O/N=C1/C(=C/c2ccc3c(c2)OCO3)CCCC1C(NO)c1ccc2c(c1)OCO2 (configuration not stated)
// result 72.5 µM

// query Lookup: TGI / NCI-H23 lung / `Cc1cc(CC(=O)NCCO)n(CCO)c(=O)c1`
// result > 100 µM

// query Lookup: TGI / NCI-H23 lung / CSc1nc(NC2OCC(O)C(O)C2O)c(N)c(=O)[nH]1 (configuration not stated)
// result > 100 µM
